Tested on: Bacillus subtilis ATCC29212
test: Antibacterial activity, growth inhibition in 96 well plates (OD600)
Format: cell-based
settings: ATCC29212, at 15 µM, NA: no activity, read-out: Growth inhibition % Bacillus subtilis
readoutType: inhibition at 15 µM (%)

                                   compound          readouttype  measureunit   val
0  COC(=O)c1cccc2nc3c(C(=O)OC)cccc3nc12 [Compound 1, dimethyl phenazine-1,6-dicarboxylate]  inhibition at 15 µM            %  19.6
1  CNC(C)C1CCC(N)C(OC2C(N)CC(N)C(OC3OCC(C)(O)C(NC)C3O)C2O)O1 (stereo not shown) [Gentamicin, reference compound]  inhibition at 15 µM            %    97
2  COc1ccc(C(N)=O)cc1 [Compound 10, p-anisamide]  inhibition at 15 µM            %  42.2
3       COC(=O)c1cccc2nc3c(C(=O)O)cccc3nc12  inhibition at 15 µM            %  32.1

====

testedSystem: Staphylococcus DNA gyrase-B (Staphylococcus aureus)
Construct: purchased Inspiralis
Sequence (P0A0K8 whole entry): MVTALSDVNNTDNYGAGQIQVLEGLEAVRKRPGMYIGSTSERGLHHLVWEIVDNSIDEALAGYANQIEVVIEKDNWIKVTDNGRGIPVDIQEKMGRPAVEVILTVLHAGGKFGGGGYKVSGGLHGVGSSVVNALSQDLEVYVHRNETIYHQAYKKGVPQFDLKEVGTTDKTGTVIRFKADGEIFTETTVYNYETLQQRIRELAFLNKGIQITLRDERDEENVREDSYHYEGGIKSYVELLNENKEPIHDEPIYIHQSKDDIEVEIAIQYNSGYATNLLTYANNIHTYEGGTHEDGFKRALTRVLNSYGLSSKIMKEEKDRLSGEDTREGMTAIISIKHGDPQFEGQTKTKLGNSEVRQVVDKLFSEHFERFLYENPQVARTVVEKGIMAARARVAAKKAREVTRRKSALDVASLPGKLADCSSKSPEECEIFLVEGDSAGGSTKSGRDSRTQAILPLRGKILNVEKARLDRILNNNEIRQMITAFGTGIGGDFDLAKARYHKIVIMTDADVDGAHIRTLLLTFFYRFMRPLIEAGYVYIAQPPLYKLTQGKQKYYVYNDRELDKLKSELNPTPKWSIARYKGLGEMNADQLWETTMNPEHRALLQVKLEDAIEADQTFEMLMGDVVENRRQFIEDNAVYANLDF
Sequence (P20831 whole entry partner): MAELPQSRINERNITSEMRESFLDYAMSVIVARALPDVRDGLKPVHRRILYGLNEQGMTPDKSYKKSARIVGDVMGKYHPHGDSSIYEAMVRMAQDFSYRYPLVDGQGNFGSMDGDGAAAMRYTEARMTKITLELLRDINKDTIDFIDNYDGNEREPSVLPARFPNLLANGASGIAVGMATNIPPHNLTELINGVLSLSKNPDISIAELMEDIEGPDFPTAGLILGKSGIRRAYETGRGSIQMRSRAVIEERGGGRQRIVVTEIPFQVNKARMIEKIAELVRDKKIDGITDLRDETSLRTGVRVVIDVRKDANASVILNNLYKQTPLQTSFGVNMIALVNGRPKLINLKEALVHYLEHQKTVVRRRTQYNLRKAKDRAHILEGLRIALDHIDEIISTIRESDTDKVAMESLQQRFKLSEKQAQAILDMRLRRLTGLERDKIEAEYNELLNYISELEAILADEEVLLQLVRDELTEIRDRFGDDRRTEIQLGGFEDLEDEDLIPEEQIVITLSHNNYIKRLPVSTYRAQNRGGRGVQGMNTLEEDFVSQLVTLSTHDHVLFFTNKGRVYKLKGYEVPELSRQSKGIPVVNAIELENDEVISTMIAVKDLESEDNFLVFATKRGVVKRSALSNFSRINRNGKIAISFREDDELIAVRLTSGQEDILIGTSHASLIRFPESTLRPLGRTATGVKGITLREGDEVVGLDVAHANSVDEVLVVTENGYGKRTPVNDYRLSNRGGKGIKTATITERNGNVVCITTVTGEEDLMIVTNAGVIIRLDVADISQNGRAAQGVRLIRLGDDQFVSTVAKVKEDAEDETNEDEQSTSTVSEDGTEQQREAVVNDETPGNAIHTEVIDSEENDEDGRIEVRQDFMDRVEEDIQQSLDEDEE
test: In vitro enzyme assay, DNA gyrase-B ATPase (Inspiralis kit)
Assay type: biochemical
settings: IC50 ± SD; read-out: IC50 (µM) Gyr-B
The compounds listed here are annotated with their IC50.
readoutType: IC50

>>> df
                                   compound      val
0  COC(=O)c1cccc2nc3c(C(=O)OC)cccc3nc12 [Compound 1, dimethyl phenazine-1,6-dicarboxylate]  19.2 µM
1       COC(=O)c1cccc2nc3c(C(=O)O)cccc3nc12  21.3 µM

====

The molecules listed here are annotated with their inhibition at 2 µM.
System: S. aureus
test: Antibiofilm activity, crystal violet staining
Format: cell-based, Staphylococcus aureus
settings: Staphylococcus aureus, NA: no activity
readoutType: inhibition at 2 µM

                                   molecule    val
0  COC(=O)c1cccc2nc3c(C(=O)OC)cccc3nc12 [Compound 1, dimethyl phenazine-1,6-dicarboxylate]    50%
1       COC(=O)c1cccc2nc3c(C(=O)O)cccc3nc12    75%
2  COc1ccc(C(N)=O)cc1 [Compound 10, p-anisamide]  61.2%
3  CC(=O)Nc1ccccc1O [Compound 9, N-(2-hydroxyphenyl)-acetamide]  11.5%

====

Test system: MCF7
test: Cytotoxic activity, MTT assay
settings: Homo sapiens, MCF7, 24 h, read-out: Cytotoxic activity (IC50) MCF7
Experimental: The cell lines were purchased from ATCC by (VACSERA), Cairo, Egypt. […] The cell lines were used to detect the inhibitory effects of isolated compounds on cell growth. Cell viability was determined via colorimetric assay (MTT), which is based on the transformation of the yellow tetrazolium bromide to a purple formazan by mitochondrial succinate dehydrogenase. […] The relative cell viability as a percentage was calculated as A570 of treated samples/A570 of untreated sample × 100.
The molecules listed here are annotated with their IC50.
readoutType: IC50 (µM)

In [3]: df
Out[3]:
                                   molecule  readouttype  comparisonsymbol   val
0  COc1ccc(C(N)=O)cc1 [Compound 10, p-anisamide]         IC50                 >   100
1  COC(=O)c1cccc2nc3c(C(=O)O)cccc3nc12 [Compound 2]         IC50                 =  82.2
2  CC(=O)Nc1ccccc1O [Compound 9, N-(2-hydroxyphenyl)-acetamide]         IC50                 =  12.7
3  O=C(O)c1cccc2nc3ccccc3nc12 [Compound 3, phenazine-1-carboxylic acid]         IC50                 >   100
4  COC(=O)c1cccc2nc3c(C(=O)OC)cccc3nc12 [Compound 1, dimethyl phenazine-1,6-dicarboxylate]         IC50                 >   100

====

The compounds listed here are annotated with their IC50.
System: HCT116
test: Cytotoxic activity, MTT assay
settings: Homo sapiens, HCT-116, 24 h, read-out: Cytotoxic activity (IC50) HCT116
readoutType: IC50

>>> print(df.to_string())
                                   compound  readouttype       val
0  COc1ccc(C(N)=O)cc1 [Compound 10, p-anisamide]         IC50  > 100 µM
1  COC(=O)c1cccc2nc3c(C(=O)OC)cccc3nc12 [Compound 1, dimethyl phenazine-1,6-dicarboxylate]         IC50     85 µM
2  CC(=O)Nc1ccccc1O [Compound 9, N-(2-hydroxyphenyl)-acetamide]         IC50   14.6 µM
3  O=C(O)c1cccc2nc3ccccc3nc12 [Compound 3, phenazine-1-carboxylic acid]         IC50   91.3 µM
4  COC(=O)c1cccc2nc3c(C(=O)O)cccc3nc12 [Compound 2]         IC50   60.8 µM

====

Test system: HePG-2
test: Cytotoxic activity, MTT assay
Assay type: cell-based
settings: Homo sapiens, HepG2, 24 h, read-out: Cytotoxic activity (IC50) HePG-2
pIC50: −log10 of the molar value.
The molecules listed here are annotated with their pIC50.
readoutType: pIC50

In [3]: df
Out[3]:
                                   molecule  comparisonsymbol   val
0  CC(=O)Nc1ccccc1O [Compound 9, N-(2-hydroxyphenyl)-acetamide]                 =  4.99
1  COc1ccc(C(N)=O)cc1 [Compound 10, p-anisamide]                 <  4.00
2  COC(=O)c1cccc2nc3c(C(=O)OC)cccc3nc12 [Compound 1, dimethyl phenazine-1,6-dicarboxylate]                 =  4.04
3  O=C(O)c1cccc2nc3ccccc3nc12 [Compound 3, phenazine-1-carboxylic acid]                 <  4.00
4  COC(=O)c1cccc2nc3c(C(=O)O)cccc3nc12 [Compound 2]                 =  4.12

====

System: B. subtilis
test: Antibiofilm activity, crystal violet staining
Assay type: cell-based
settings: Bacillus subtilis, NA: no activity
Method: The biofilm-inhibitory activities of the isolated pure compounds (1–3, 9, and 10) were measured using 96 well flat polystyrene plates against four clinical microbes comprising Gram-positive (Bacillus subtilis and Staphylococcus aureus) and Gram-negative (Escherichia coli and Pseudomonas aeruginosa) pathogenic bacteria, according to Antunes, et al. with some modifications. […]
readoutType: inhibition at 2 µM

>>> df
                                   compound  testedsystem    val
0       COC(=O)c1cccc2nc3c(C(=O)O)cccc3nc12   B. subtilis  18.6%
1  COC(=O)c1cccc2nc3c(C(=O)OC)cccc3nc12 [Compound 1, dimethyl phenazine-1,6-dicarboxylate]   B. subtilis  12.1%
2  CC(=O)Nc1ccccc1O [Compound 9, N-(2-hydroxyphenyl)-acetamide]   B. subtilis  4.91%
3  COc1ccc(C(N)=O)cc1 [Compound 10, p-anisamide]   B. subtilis  20.3%

====

The molecules listed here are annotated with their IC50 at 24 h.
test: Cytotoxic activity, MTT assay
settings: human
readoutType: IC50 at 24 h (µM)

>>> df
                                   molecule  measureunit  comparisonsymbol   val
0                O=C(O)c1cccc2nc3ccccc3nc12           µM                 =  51.2
1  COc1ccc(C(N)=O)cc1 [Compound 10, p-anisamide]           µM                 >   100
2  CC(=O)Nc1ccccc1O [Compound 9, N-(2-hydroxyphenyl)-acetamide]           µM                 =  36.5
3       COC(=O)c1cccc2nc3c(C(=O)O)cccc3nc12           µM                 =  76.3
4  COC(=O)c1cccc2nc3c(C(=O)OC)cccc3nc12 [Compound 1, dimethyl phenazine-1,6-dicarboxylate]           µM                 =  63.2

====

Tested on: E. coli
test: Antibiofilm activity, crystal violet staining
Type: cell-based
settings: Escherichia coli; at 2 µM; read-out: Antibiofilm activity (% inhibition) E. coli
readoutType: inhibition at 2 µM (%)

In [3]: df
Out[3]:
                                   compound         readouttype   val
0  COC(=O)c1cccc2nc3c(C(=O)OC)cccc3nc12 [Compound 1, dimethyl phenazine-1,6-dicarboxylate]  inhibition at 2 µM  36.7
1  COc1ccc(C(N)=O)cc1 [Compound 10, p-anisamide]  inhibition at 2 µM  57.5
2  CC(=O)Nc1ccccc1O [Compound 9, N-(2-hydroxyphenyl)-acetamide]  inhibition at 2 µM  34.5
3       COC(=O)c1cccc2nc3c(C(=O)O)cccc3nc12  inhibition at 2 µM  54.1
